Quick list: Population Pyknosed Nuclei (%) per entry.
# System: U2OS
# measurementProtocol: Multiplex assay against U2OS
# Assay type: toxicity, cell-based
# testParameters: human, 12 h, 1 µM, compound concentration 1 uM, replicate 2
recordedEndpoint: Population Pyknosed Nuclei (%)

In [3]: df
Out[3]:
                                  cpdsmiles  measvalue
0   CCCn1c(=O)c2[nH]c(C3CCCC3)nc2n(CCC)c1=O         12
1  O=C(NCC(=O)N1CC[C@H](N[C@H]2CC[C@@](O)(c3ccc(-c4ncccn4)cn3)CC2)C1)c1cccc(C(F)(F)F)c1         12
2            O=C(O)Cc1ccccc1Nc1c(Cl)cccc1Cl         10

====

# Test system: U2OS
# measurementProtocol: Multiplex assay against U2OS
# Assay type: toxicity, cell-based
# testParameters: human, 24 h, 1 µM, compound concentration 1 uM, replicate 1
Population Apoptotic (%) under 90% gets fulfilled, anything at or over 90% gets not fulfilled.

>>> df
                                   compound  testtarget       category
0  CN1CCN(c2nc3cc(C(F)(F)F)ccc3n3cccc23)CC1.O=C(O)/C=C\C(=O)O.O=C(O)/C=C\C(=O)O        U2OS      fulfilled
1  COc1ccc2c(c1)C(C(=O)N(Cc1ccc(N(C)C)cc1)c1ccc(C(C)C)cc1)CCC2.Cl (stereo not drawn)        U2OS      fulfilled
2  C[C@@H]1C[C@H]2[C@@H]3CCC4=CC(=O)C=C[C@]4(C)[C@@]3(F)[C@@H](O)C[C@]2(C)[C@@]1(O)C(=O)CO        U2OS  not fulfilled
3  Cc1nc2ccc(Oc3ccc(F)cc3)cc2c(=O)n1C[C@H]1CCCN(C(C)C)C1.Cl        U2OS      fulfilled
4  C[C@H](NC(=O)c1c(C(F)F)nn(C)c1Oc1cccc(C(F)(F)F)c1)c1ccc(C(=O)O)cc1        U2OS      fulfilled
5  COc1cc(NC(=O)CCN2CCC(OC(=O)Nc3ccccc3-c3ccccc3)CC2)c(Cl)cc1CNC[C@H](O)c1ccc(O)c2[nH]c(=O)ccc12        U2OS      fulfilled

====

# Test system: HEK-293T
# measurementProtocol: Multiplex assay against HEK293T
# Format: toxicity, cell-based
# testParameters: human, 12 h, 10 µM, compound concentration 10 uM, replicate 2
Quick list: Population Healthy Nuclei (%) per entry.
recordedEndpoint: Population Healthy Nuclei (%)

compound	measValue
CCCN1CCC[C@@H]2Cc3n[nH]cc3C[C@H]21.Cl [QUINPIROLE HYDROCHLORIDE]	78
CC[C@H]1OC(=O)[C@H](C)[C@@H](O[C@H]2C[C@@](C)(OC)[C@@H](O)[C@H](C)O2)[C@H](C)[C@@H](O[C@@H]2O[C@H](C)C[C@H](N(C)C)[C@H]2O)[C@@]2(C)CC(C)=C(O2)[C@H](C)[C@@H](O)[C@]1(C)O	72
C[C@H]1[C@H]2CC[C@H]3[C@@H]4CC=C5C[C@@H](N(C)C)CC[C@]5(C)[C@H]4CC[C@]23CN1C	78

====

# System: U2OS
# measurementProtocol: Multiplex assay against U2OS
# Type: toxicity, cell-based
# testParameters: human, 24 h, 10 µM, compound concentration 10 uM, replicate 2
recordedEndpoint: Population Apoptotic (%)

                                    molecule  testtarget          recordedendpoint  measvalue
 0  Cl.Clc1ccc2nsnc2c1NC1=NCCN1 [TIZANIDINE HYDROCHLORIDE]        U2OS  Population Apoptotic (%)         86
 1  CSCC[C@H](NC=O)C(=O)N[C@@H](CC(C)C)C(=O)N[C@@H](Cc1ccccc1)C(=O)O        U2OS  Population Apoptotic (%)        100
 2   CN(C)c1ccnc2sc3c(=O)n(N4CCCCCC4)cnc3c12        U2OS  Population Apoptotic (%)        100
 3  Cc1ccc(/C(=C\CN2CCCC2)c2ccccn2)cc1 [TRIPROLIDINE]        U2OS  Population Apoptotic (%)         78
 4  Cc1ccc(C(C)(O)c2nc3ccccc3s2)c(C)c1 (stereo not drawn)        U2OS  Population Apoptotic (%)         75
 5   CNC[C@H](O)c1ccc(O)c(O)c1 [EPINEPHRINE]        U2OS  Population Apoptotic (%)        100
 6  O=S(=O)(c1ccccc1)c1cnc2c(N3CCNCC3)cccc2c1 [INTEPIRDINE]        U2OS  Population Apoptotic (%)         77
 7  CCNC1(C(N)=O)CCN(c2ncnc3c2nc(-c2ccccc2Cl)n3-c2ccc(Cl)cc2)CC1 [OTENABANT]        U2OS  Population Apoptotic (%)         80
 8  COc1cc(NC(=O)CCN2CCC(OC(=O)Nc3ccccc3-c3ccccc3)CC2)c(Cl)cc1CNC[C@H](O)c1ccc(O)c2[nH]c(=O)ccc12 [BATEFENTEROL]        U2OS  Population Apoptotic (%)         73
 9  CCOc1c2c(c(OCC)c3ncccc13)CN(c1ccc(CS(=O)(=O)NC(=O)Cc3ccccc3OC)cc1C)C2=O        U2OS  Population Apoptotic (%)        100
10  N#Cc1c(N)nc(SCc2csc(-c3ccc(Cl)cc3)n2)c(C#N)c1-c1ccc(OCCO)cc1 [CAPADENOSON]        U2OS  Population Apoptotic (%)         69
11  O=C(NCCO)c1cccc(-c2cc(Nc3ccc(OC(F)(F)F)cc3)ncn2)c1        U2OS  Population Apoptotic (%)        100
12  CC1(COc2ccc3c(c2)ncn3-c2ccc3cccc(N4CCC(N)CC4)c3n2)COC1 [CRENOLANIB]        U2OS  Population Apoptotic (%)        100
13  CN1CCN(c2nc3cc(C(F)(F)F)ccc3n3cccc23)CC1.O=C(O)/C=C\C(=O)O.O=C(O)/C=C\C(=O)O        U2OS  Population Apoptotic (%)         78
14  Cc1ccc(-c2ccc(F)cc2COc2ccc(CCC(=O)O)cc2)cc1        U2OS  Population Apoptotic (%)         93
15  C[C@H]1[C@H]2CC[C@H]3[C@@H]4CC=C5C[C@@H](N(C)C)CC[C@]5(C)[C@H]4CC[C@]23CN1C [CONESSINE]        U2OS  Population Apoptotic (%)        100
16  COc1cc(C(=O)N(CCCc2ccccc2)Cc2ccc(CC(=O)O)cc2)cc(OC)c1C        U2OS  Population Apoptotic (%)         84
17  Cc1ccc(F)cc1C(=O)Nc1ccc(C(=O)N2Cc3cccn3Cc3ccccc32)c(Cl)c1 [LIXIVAPTAN]        U2OS  Population Apoptotic (%)         66
